Data origin, for the record: patent US20070117743A1

# System: IGROV-ET
# assay-text: SRB colorimetric assay of cell growth and viability, IGROV-ET
# Assay type: cell-based, human
# assay-context: 48 hours exposure; read-out: LC50 IGROV-ET
Where a SMILES comes first, the peptide text is derived from it. Bridges are numbered along the chain shown (N, C = ends). [ ]: non-standard residue; d: D form. The star is where a group is joined. d(aIle) = CC[C@H](C)[C@@H](N)C(=O)O; d(aThr) = C[C@@H](O)[C@@H](N)C(=O)O; Hexanoyl(5-Me) = CC(C)CCCC(=O)*; Orn = NCCC[C@H](N)C(=O)O; Dhb = C/C=C(\N)C(=O)O
assay-endpoint: CC50 (nM)
Give just the number in nM; leave the unit off.

C/C=C1\NC(=O)[C@H](Cc2ccccc2)NC(=O)[C@@H](C(C)C)NC(=O)[C@@H]([C@@H](C)CC)NC(=O)[C@H](NC(=O)[C@H](NC(=O)[C@H](CCCN)NC(=O)[C@H]2CCCN2C(=O)[C@H](NC(=O)[C@H](CC(C)C)NC(=O)[C@@H](NC(=O)[C@H](NC(=O)CCCC(C)C)C(C)C)[C@@H](C)O)C(C)C)[C@@H](C)CC)[C@@H](C)OC(=O)[C@H](C(C)C)NC1=O [Compound 45, [Leu^11]-KF] ({Hexanoyl(5-Me)}-[dV]TL[dV][dP][Orn][d(aIle)][d(aThr)][d(aIle)][dV]F[Dhb]V; ester 8-C); 3690

Now look at this entry.
For this compound ( C/C=C1\NC(=O)[C@H](Cc2ccccc2)NC(=O)[C@@H](C(C)C)NC(=O)[C@@H]([C@@H](C)CC)NC(=O)[C@H](NC(=O)[C@H](NC(=O)[C@H](CCCN)NC(=O)[C@H]2CCCN2C(=O)[C@H](NC(=O)[C@@H](NC(=O)[C@@H](NC(=O)[C@H](NC(=O)C(F)(F)C(F)(F)C(F)(F)C(F)(F)C(F)(F)C(F)(F)F)C(C)C)[C@@H](C)O)C(C)C)C(C)C)[C@@H](C)CC)[C@@H](C)OC(=O)[C@H](C(C)C)NC1=O [Compound 26, [Pfh^14]-KF] ), measured CC50 is 2040
